Where do the numbers come from? From ChEMBL document CHEMBL1201862.

Test system: A498
Assay: NCI tumour cell line growth inhibition, 48 h
The source made the active and inactive calls. No stated cut-off is given here; in the data, active = GI50 up to about 1.1 µM and inactive = higher.
Exercise: for every item that follows, state its recorded GI50.

In the examples that follow, each entry is paired with its recorded GI50.
- CCCCCCCSCC(O)COC(c1ccccc1)(c1ccccc1)c1ccccc1 (stereo not given): > 100 µM (inactive)
- COC(=O)C1(Cc2ccccc2)Cc2c(C)ccc(C)c2C1=O (stereo not given): 46.8 µM (inactive)
- CCOC(=O)/C=C1\Nc2ccccc2C(c2ccccc2)=NC1OC(C)=O (stereo not given): > 100 µM (inactive)
- CC(C)(CN1CCOCC1)C(=O)/C=C/c1ccc(/C=C/C(=O)C(C)(C)CN2CCOCC2)cc1: 1.97 µM (inactive)
- COc1ccc(C(NS(=O)(=O)c2ccc(C)cc2)c2c(C(CBr)OC)c3ccccc3n2S(=O)(=O)c2ccccc2)cc1OC (stereo not given): > 100 µM (inactive)

Please state GI50 for every compound in the list that follows.
1. Cc1ccc(S(=O)(=O)CC2(Br)CCc3ccccc3C2=O)cc1 (stereo not given)
2. NC(=O)c1cc2cc(Cl)cc(Cl)c2o/c1=N\c1ccc(F)cc1
3. CO/N=C(/C(=O)OC)c1ccccc1COc1cccc(C(F)(F)F)c1
4. O=[N+]([O-])c1ccc2sc(/C=N/c3ccc(O)cc3)cc2c1
5. CCc1ccccc1NC(=O)C(=O)C(C#N)c1ccccc1Cl (stereo not given)

Result:
["25.8 µM (inactive)", "19.4 µM (inactive)", "43.5 µM (inactive)", "72.8 µM (inactive)", "35.5 µM (inactive)"]
